Origin of measurements: paper PMC8787478

Target: Vfr (Pseudomonas aeruginosa) (UniProt P55222)
Sequence: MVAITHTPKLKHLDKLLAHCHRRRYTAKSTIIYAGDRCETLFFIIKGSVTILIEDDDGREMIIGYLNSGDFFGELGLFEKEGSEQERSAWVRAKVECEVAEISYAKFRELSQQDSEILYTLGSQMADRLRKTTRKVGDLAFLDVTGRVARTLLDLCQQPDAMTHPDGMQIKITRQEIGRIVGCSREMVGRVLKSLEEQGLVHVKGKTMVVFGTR
Test: EMSA
Conditions: EMSA: 10 mM Tris pH 7.5, 50 mM KCl, 1 mM EDTA, 1 mM DTT, 5% glycerol, 100 ug/mL BSA, 5 ug/mL poly(dI-dC), 0.25 nM probe, 25 C; footprinting: 10 mM Tris pH 8.0 …
observable: binding

GTACGGGCGAAATAAAGCACCGAAATGTCATCTGCCAAATCAAACCGCGAAACAGCGCTCGTTCCGGCTTCGTCGACGAGCCGCCGGTTTTTCCTCCCGGCCAGTAATCATCGTTGCCCTTTGCCCGTCACGCAGGCCGCGCG (double strand) [PalgZ VBS1-3 mutant (VBS1 and VBS3)]    binds more weakly
GTACGGGCGAAATAAAGCACCGAAATGCCATCTGCCGCAAAAAACCGCGAAACAGCGCTCGTTCCGGCTTCGTCGACGAGCCGCCGGTTTTTCCTCCCGGCCAGTAATCATCGTTGCCCTTTGCCCGTCACGCAGGCCGCGCG (double strand) [PalgZ VBS1 mutant]    binds more weakly
GTACGGGCGAAATAAAGCACCGAAATGTCATCTGCCAAATCAAACCACAGAACAGCGATACTTCCGGCTTCGTCGACGAGCCGCCGGTTTTTCCTCCCGGCCTGCTATCATCGTCGCACTTTGCCCGTCACGCAGGCCGCGCG (double strand) [PalgZ VBS2-3 mutant]    binds more weakly
GCATACCGTTGCCTGGCAACTGATCCTCAACCGGCAGGGCCGGCTCCGTACCGCGAGCGCCAGGGAGAACCGGGAGAAACGTGAGCTATGCAGCACTTCCGGATGATCATGGACCAGTTGTCCTGCCCCACGGGCCGACCGTCAACGACCGCAAGACGCTCCCAGGCCCGTTTGGCATGCTTTCCAGGCGTAGAC (double strand) [PfimU WT]    binds

Consider the sequence GTACGGGCGAAATAAAGCACCGAAATGTCATCTGCCAAATCAAACCGCGAAACAGCGCTCGTTCCGGCTTCGTCGACGAGCCGCCGGTTTTTCCTCCCGGCCTGCTATCATCGTCGCACTTTGCCCGTCACGCAGGCCGCGCG (double strand) [PalgZ VBS3 mutant] and give its measured binding.
binds
